method summary: Determination of bio-accumulation: urinary clearance pharmacokinetic study in rats
Assay type: in vivo, male Sprague Dawley rats
run parameters: 73 micro Moles per kg body weight, oral gavage, parent compound in urine up to 96 h
% Recovery (96 h) overview
Please state the figure in %; there is no need to write the unit.

Known results for molecules:
Problem: Need % Recovery (96 h) of N.O=C(O)C(F)(F)C(F)(F)OC(F)(F)C(F)(F)C(F)(F)C(F)(F)F [Compound 4, C4F9—O—CF2—CF2—COONH4] , thanks.
Solution: 42

Problem: Dear colleague, I am looking for the recorded % Recovery (96 h) of the following molecule: N.O=C(O)C(F)(F)C(F)(F)OC(F)(F)C(F)(F)C(F)(F)F [Compound 3, C3F7—O—CF2—CF2—COONH4]
Solution: 82

Problem: # lookup: % Recovery (96 h) of N.O=C(O)C(F)(F)C(F)(F)OC(F)(F)C(F)(F)F [Compound 2, C2F5—O—CF2—CF2—COONH4]
Solution: 100

Problem: Fill blank: measured % Recovery (96 h) of the molecule N.O=C(O)C(F)(F)C(F)(F)C(F)(F)C(F)(F)C(F)(F)C(F)(F)C(F)(F)F [Compound C-1, C7F15COONH4, reference compound] is ____.
Solution: 6

Query molecule follows.
Problem: What % Recovery (96 h) value was documented for this molecule, N.O=C(O)C(F)(F)C(F)(F)OC(F)(F)F [Compound 1, CF3—O—CF2—CF2—COONH4] ?
Solution: 100

* * *

In this section we review reported T½ (renal half-life) values for a set of molecules.
method summary: Determination of bio-accumulation: urinary clearance pharmacokinetic study in rats
Format: in vivo, male Sprague Dawley rats
run parameters: 73 micro Moles per kg body weight, oral gavage, exponential least squares curve fitting of urine concentration (fluorine NMR)
Kindly answer with a numeric value in h, unit omitted.

Problem: State the recorded T½ (renal half-life) for this entry: N.O=C(O)C(F)(F)C(F)(F)OC(F)(F)C(F)(F)C(F)(F)C(F)(F)F
Solution: 31

Problem: What measured T½ (renal half-life) goes with N.O=C(O)C(F)(F)C(F)(F)OC(F)(F)F ?
Solution: 11

Problem: Need T½ (renal half-life), item N.O=C(O)C(F)(F)C(F)(F)OC(F)(F)C(F)(F)F
Solution: 10

Shift focus to the following entry.
Problem: # query: T½ (renal half-life) of entry N.O=C(O)C(F)(F)C(F)(F)OC(F)(F)C(F)(F)C(F)(F)F
Solution: 12
